- ASSAY SYSTEM: CD74 (human), P04233
- Sequence (P04233 whole entry): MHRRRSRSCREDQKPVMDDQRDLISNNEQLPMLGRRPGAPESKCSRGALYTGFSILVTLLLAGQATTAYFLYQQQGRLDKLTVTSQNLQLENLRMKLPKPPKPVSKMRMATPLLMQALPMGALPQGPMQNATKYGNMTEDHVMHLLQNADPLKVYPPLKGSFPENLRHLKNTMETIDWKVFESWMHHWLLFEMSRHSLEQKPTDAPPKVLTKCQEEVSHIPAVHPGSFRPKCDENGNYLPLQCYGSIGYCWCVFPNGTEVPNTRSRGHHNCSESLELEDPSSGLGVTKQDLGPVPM
- ASSAY NAME: cell-based or functional assay
Each entry below carries its reported cell killing Span, ARD (MM) cells.
Express your answer in %, writing the number without its unit.

// below: answered binders
BINDER	QUANTITY UNIT	cell killing Span, ARD (MM) cells
Conjugate A (anti-CD74 IgG-DBCO-PEG4-maytansine conjugate) (antibody, V domains shown, here or on the partner: para-azidomethyl-L-phenylalanine (pAMF, residue 30) at heavy chain EU position 404 (constant region, outside SEQ ID NO 236), linked to DBCO-PEG4-maytansine) VH: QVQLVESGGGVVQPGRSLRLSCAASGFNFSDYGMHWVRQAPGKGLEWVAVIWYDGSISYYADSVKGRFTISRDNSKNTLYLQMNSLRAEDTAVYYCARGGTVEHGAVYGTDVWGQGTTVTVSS VL: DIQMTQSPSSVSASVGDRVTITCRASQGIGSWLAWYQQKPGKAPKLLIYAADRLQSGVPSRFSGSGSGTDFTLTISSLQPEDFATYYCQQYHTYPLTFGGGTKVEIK	%	40
Conjugate C (anti-CD74 IgG-val-cit-PAB-hemiasterlin conjugate) (antibody, V domains shown, here or on the partner: modified amino acid residue 30 (pAMF) according to Example 2, position not stated for this conjugate, linked to val-cit-PAB-hemiasterlin) VH: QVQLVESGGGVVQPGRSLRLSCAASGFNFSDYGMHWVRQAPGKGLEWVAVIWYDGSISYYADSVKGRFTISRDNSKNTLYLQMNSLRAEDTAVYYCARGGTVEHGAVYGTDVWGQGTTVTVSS VL: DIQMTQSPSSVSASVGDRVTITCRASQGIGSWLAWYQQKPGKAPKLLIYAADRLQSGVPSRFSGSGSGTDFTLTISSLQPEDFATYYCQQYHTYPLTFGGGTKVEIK	%	74

Read the next record carefully.
Qu. Given Conjugate B (anti-CD74 IgG-PEG4-maytansine conjugate) (antibody, V domains shown, here or on the partner: modified amino acid residue 30 (pAMF) according to Example 2, position not stated for this conjugate, linked to a PEG4-maytansine linker-payload) VH: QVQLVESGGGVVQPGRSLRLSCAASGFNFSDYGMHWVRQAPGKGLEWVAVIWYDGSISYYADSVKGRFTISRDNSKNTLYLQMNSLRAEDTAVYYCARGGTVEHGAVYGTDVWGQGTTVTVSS VL: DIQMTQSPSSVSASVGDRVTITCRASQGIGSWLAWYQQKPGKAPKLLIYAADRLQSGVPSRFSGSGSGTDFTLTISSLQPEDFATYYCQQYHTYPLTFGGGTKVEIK , state its recorded cell killing Span, ARD (MM) cells.
Ans. 53
